The origin of these recorded values is the FLAb antibody collection.

Recorded measurements of patients with anti-drug antibodies, one per entry
assay: patients with anti-drug antibodies; higher = more immunogenic
Note to self: number, then unit, no commentary.

* unnamed (protein) chain 1: EVQLVQSGAEVKKPGASVKVSCKASGYTFTSYVIHWVRQRPGQGLAWMGYINPYNDGTKYNERFKGKVTITSDRSTSTVYMELSSLRSEDTAVYLCGREGIRYYGLLGDYWGQGTLVTVSS chain 2: DIQMTQSPSSLSASVGDRVTITCGTSEDIINYLNWYQQKPGKAPKLLIYHTSRLQSGVPSRFSGSGSGTDFTLTISSLQPEDFATYYCQQGYTLPYTFGQGTKVEIK | 13%
* unnamed (protein) chain 1: QVQLVQSGAEVKKPGSSVKVSCKASGYTFTDYEMHWVRQAPGQGLEWIGAVAPETGGTAYNQKFKGRATITADKSTSTAYMELSSLRSEDTAVYYCTSTVVPFAYWGQGTLVTVSS chain 2: QIQLTQSPSSLSASVGDRVTITCSASSSVSYMYWYQQKPGKAPKAWIYRTSNLASGVPSRFSGSGSGTDYTLTISSLQPEDFATYYCQQYQSLPLTFGGGTKVEIK | 0%
* unnamed (protein) chain 1: EVQLVESGGGLVQPGGSLRLSCAASGFTFTDYTMDWVRQAPGKGLEWVADVNPNSGGSIYNQRFKGRFTLSVDRSKNTLYLQMNSLRAEDTAVYYCARNLGPSFYFDYWGQGTLVTVSS chain 2: DIQMTQSPSSLSASVGDRVTITCKASQDVSIGVAWYQQKPGKAPKLLIYSASYRYTGVPSRFSGSGSGTDFTLTISSLQPEDFATYYCQQYYIYPYTFGQGTKVEIK | 2.8%
* unnamed (protein) chain 1: EVQLLESGGGLVQPGGSLRLSCAASGFTFSHYIMMWVRQAPGKGLEWVSGIYSSGGITVYADSVKGRFTISRDNSKNTLYLQMNSLRAEDTAVYYCAYRRIGVPRRDEFDIWGQGTMVTVSS chain 2: DIQMTQSPSTLSASVGDRVTITCRASQSISSWLAWYQQKPGKAPKLLIYKASTLESGVPSRFSGSGSGTEFTLTISSLQPDDFATYYCQQYNTYWTFGQGTKVEIK | 7%

Which patients with anti-drug antibodies value belongs to unnamed (protein) chain 1: EVQLLESGGGLVQPGGSLRLSCAASGFTFSIYSMNWVRQAPGKGLEWVSSIGSSGGTTYYADSVKGRFTISRDNSKNTLYLQMNSLRAEDTAVYYCAGSQWLYGMDVWGQGTTVTVSS chain 2: DIQMTQSPSSLSASVGDRVTITCRSSQRIMTYLNWYQQKPGKAPKLLIFVASHSQSGVPSRFRGSGSETDFTLTISGLQPEDSATYYCQQSFWTPLTFGGGTKVEIK ?
7.4%
